Reference source for all entries: patent US20060079453A1

- assayTarget: HLA-B*4403 (Homo sapiens, UniProt P01889, A223V/A65T/A93T/A95T/D201E/D98Y/E176V/E187L/E204Q/E69K/G107R/H137Y/K202T/L105A/L119I/N104T/N87E/Q56L/Q94N/R106L/R155S/R180L/S101N/S121R/S35A/S48T/T118I/V36M/W191S/Y140D/Y91S)
- assaySummary: biochemical
- Type: binding
No end group written: not given here.
quantityKind: IC50 (nM)
State just the number; it will be interpreted in nM.

> print(dat)
    sequence  unitofmeasurement  obsvalue
1  AENPWVTVY                 nM        53
2  AENLWLTVY                 nM       226
3  AENLWVTVW                 nM       324
4   SDYEGRLI                 nM       228
5  AENLWVDVY                 nM        92

IC50 lookup needed for AENLWKTVY , thanks. 383

IC50 lookup needed for FENLWVTVY , thanks. 1310
